Biological target: USP14 (Homo sapiens, UniProt P54578)
Sequence (P54578 whole entry): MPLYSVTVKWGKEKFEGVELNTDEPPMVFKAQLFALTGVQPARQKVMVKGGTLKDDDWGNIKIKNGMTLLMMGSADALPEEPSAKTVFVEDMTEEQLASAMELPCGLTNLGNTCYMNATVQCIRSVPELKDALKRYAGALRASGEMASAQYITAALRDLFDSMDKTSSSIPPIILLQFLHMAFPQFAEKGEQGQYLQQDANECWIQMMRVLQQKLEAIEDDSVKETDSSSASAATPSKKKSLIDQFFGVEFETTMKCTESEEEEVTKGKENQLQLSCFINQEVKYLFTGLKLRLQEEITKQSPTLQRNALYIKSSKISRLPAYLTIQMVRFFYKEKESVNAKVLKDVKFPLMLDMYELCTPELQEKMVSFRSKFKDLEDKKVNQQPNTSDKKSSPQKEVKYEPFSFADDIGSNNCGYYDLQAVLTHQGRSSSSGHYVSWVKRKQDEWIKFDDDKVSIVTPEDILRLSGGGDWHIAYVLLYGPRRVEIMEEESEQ
Sequence (Q13200 whole entry partner): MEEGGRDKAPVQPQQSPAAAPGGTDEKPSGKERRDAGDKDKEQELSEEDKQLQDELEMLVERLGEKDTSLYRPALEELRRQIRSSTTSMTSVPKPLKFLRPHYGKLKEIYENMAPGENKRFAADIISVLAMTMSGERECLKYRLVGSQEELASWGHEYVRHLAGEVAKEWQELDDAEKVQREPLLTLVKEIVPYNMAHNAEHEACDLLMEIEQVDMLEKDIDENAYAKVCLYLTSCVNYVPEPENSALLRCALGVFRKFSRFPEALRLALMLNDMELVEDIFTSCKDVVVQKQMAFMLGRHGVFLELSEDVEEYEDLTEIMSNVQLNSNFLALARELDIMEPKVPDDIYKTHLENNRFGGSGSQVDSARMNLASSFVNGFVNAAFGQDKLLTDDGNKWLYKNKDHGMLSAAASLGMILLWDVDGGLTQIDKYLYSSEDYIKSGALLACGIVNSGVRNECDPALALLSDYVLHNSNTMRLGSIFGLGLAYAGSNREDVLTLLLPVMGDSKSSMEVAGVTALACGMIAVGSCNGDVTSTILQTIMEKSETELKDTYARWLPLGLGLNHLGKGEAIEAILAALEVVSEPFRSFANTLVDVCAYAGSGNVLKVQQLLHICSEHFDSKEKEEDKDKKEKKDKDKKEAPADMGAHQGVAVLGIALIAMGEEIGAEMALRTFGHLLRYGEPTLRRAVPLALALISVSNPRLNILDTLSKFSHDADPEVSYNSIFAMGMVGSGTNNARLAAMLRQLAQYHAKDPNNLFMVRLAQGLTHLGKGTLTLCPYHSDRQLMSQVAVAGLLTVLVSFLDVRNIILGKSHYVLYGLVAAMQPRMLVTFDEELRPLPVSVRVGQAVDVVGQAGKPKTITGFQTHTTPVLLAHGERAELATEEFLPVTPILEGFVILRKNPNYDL
Sequence (P35998 whole entry partner): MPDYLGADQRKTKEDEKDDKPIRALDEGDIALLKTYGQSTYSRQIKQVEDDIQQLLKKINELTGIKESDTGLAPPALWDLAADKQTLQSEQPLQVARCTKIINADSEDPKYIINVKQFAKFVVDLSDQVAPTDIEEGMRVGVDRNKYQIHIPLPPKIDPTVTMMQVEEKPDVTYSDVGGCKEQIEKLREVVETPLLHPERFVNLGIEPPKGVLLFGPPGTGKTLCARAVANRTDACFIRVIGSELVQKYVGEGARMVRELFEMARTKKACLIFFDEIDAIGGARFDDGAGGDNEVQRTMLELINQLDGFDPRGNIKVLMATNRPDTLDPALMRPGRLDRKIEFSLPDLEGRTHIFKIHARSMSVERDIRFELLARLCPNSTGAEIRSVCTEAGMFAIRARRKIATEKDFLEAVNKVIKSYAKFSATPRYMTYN
pIC50: −log10 of the molar value.
readoutType: pIC50

>  <smilesString>
O=C(CN1CCCCC1)c1cnn(-c2ccc(Cl)cc2)c1

>  <readoutType>
pIC50

>  <observedValue>
< 5.00

$$$$

Look at each compound and report its pIC50.
1. Cc1cc(C(=O)C(F)F)c(C)n1-c1ccc(Cl)cc1
2. Cc1cc(C(=O)Cn2ccnc2)c(C)n1-c1ccc(Cl)cc1
3. Cc1sc(-c2ccc(Cl)cc2)cc1C(=O)CN1CCC(O)CC1

Solution:
["< 5.00", "< 5.00", "< 5.00"]

Problem: Can you share its pIC50? I mean this compound: Cc1nn(-c2ccc(Cl)cc2)c(C)c1C(=O)CN1CCCC1
Solution: > 5.30

Just for reference, patent US12180189B2 is where these values come from.
